Tested on: Aorta
Assay: Inhibition of micro-vessel branching in […] mouse aorta cultured in collagen gels assessed as attenuation of branching at 7.5 uM by aortic ring sprouting assay
Type: functional, tissue-based
Active and inactive are the calls of the source. No cut-off for these calls is given here.
Classes used: active, inactive

| compound | groupLabel |
| --- | --- |
| CCc1oc2ccc(O)cc2c1C(=O)c1cc(Br)c(O)c(Br)c1 | active |
| Cc1oc2ccccc2c1C(=O)c1ccc(O)c(I)c1 | active |
| CC(O)c1oc2ccccc2c1C(=O)c1cc(Br)c(O)c(Br)c1 (configuration not stated) | active |
| Cc1oc2ccccc2c1C(=O)c1cc(I)c(O)c(I)c1 | active |
| CCc1oc2cc(O)ccc2c1C(=O)c1cc(Br)c(O)c(Br)c1 | active |
| CC(O)CCc1oc2ccccc2c1C(=O)c1cc(I)c(O)c(I)c1 (configuration not stated) | inactive |
| CCCCc1oc2ccccc2c1C(=O)c1cc(I)c(O)c(I)c1 | active |

Provenance of the data: ChEMBL document CHEMBL4421732
